Test: NCI Yeast Anticancer Drug Screen. Data for the bub3 strain (AID 167)
Settings: S. cerevisiae bub3 mutant strain, at 50.0 µM, hits give high values
Compounds without any hit were thinned out: in the full panel of roughly 79,000, 15% have a hit.
measureName: growth inhibition (%)
One number for each entry, in %.

// worked examples, growth inhibition included
* Cn1c(=O)cc(CCl)c2ccccc21 | 31.7
* CC(=O)OC1CCC2(C)C(CCC3(C)C2CC=C2C4CC(C)(C)CCC4(C)CCC23C)C1(C)C (configuration not stated) | 6.05
* c1ccc2c(c1)Cc1c(-c3ccncc3)n[nH]c1-2 | 19.3
* CCOC(=O)c1sc(N)nc1C | -11.5
* O=C1C(=Cc2ccc([N+](=O)[O-])cc2)C(=O)c2ccccc21 | 0.15
* O=[N+]([O-])c1ccccc1S(=O)(=O)c1ccccc1[N+](=O)[O-] | -1.5

Dear colleague, could you send me growth inhibition for each of the items below? Thanks.
1. CCCC(O)CNCC1CCC2CCc3cccc1c32 (configuration not stated)
2. Cc1c(-c2ccc(N)cc2)c(=O)oc2cc(O)ccc12
3. O=C(OCCCCNC1CCCCC1)c1ccc([N+](=O)[O-])cc1
4. CCC(C)C(C(=O)OCCC[N+]1(C)CCCCC1)c1ccccc1 (configuration not stated)
5. CC1CC=CCC1C1OCCO1 (configuration not stated)
6. Cc1ccc(N=Nc2ccc(O)c(CN(C)C)c2)cc1

Result:
20.4
8.1
-13.6
5.75
16.4
18
